- Test system: Plasmodium falciparum
- method notes: Antimalarial activity against erythrocytic stage of chloroquine sensitive Plasmodium falciparum 3D7 assessed as inhibition of parasitemia after 48 hrs by Giemsa staining based microscopic analysis
- Format: functional, organism-based
- assay context: 3D7, 48 h
Entries and their measured IC50 follow.
Please give a number only; it is taken to be in µg/mL.

Sample records with IC50:
input smiles	unit descriptor	IC50
COc1cc(OC)c2c(=O)cc(-c3ccc(OCc4cn(-c5ccccc5Cl)nn4)c(OC)c3)oc2c1	µg/mL	12.1
COc1cc(O)c(C(=O)/C=C/c2ccc(OCc3cn(-c4ccc(F)cc4F)nn3)c(OC)c2)c(OC)c1	µg/mL	3.58
COc1cc(O)c(C(=O)/C=C/c2ccc(OCc3cn(-c4ccc(Cl)cc4)nn3)c(OCc3cn(-c4ccc(Cl)cc4)nn3)c2)c(OC)c1	µg/mL	12.8

Problem: Supply recorded IC50 for COc1cc(O)c(C(=O)/C=C/c2ccc(OC)c(OCc3cn(-c4ccc(Cl)cc4)nn3)c2)c(OC)c1 here.
Solution: 11

###

Entries and their measured MIC follow.
- System: Escherichia coli
- method notes: Antibacterial activity against Escherichia coli ATCC 35218 after 18 to 24 hrs by micro-dilution method
- Format: functional

input smiles	experimental system	MIC
COc1cc(OC)c2c(=O)cc(-c3ccc(OCc4cn(-c5ccc(F)cc5Cl)nn4)c(OC)c3)oc2c1	Escherichia coli	50 µg/mL
COc1cc(O)c(C(=O)/C=C/c2ccc(OCc3cn(-c4ccccc4Cl)nn3)c(OC)c2)c(OC)c1	Escherichia coli	6.25 µg/mL

Problem: Supply recorded MIC for COc1cc(OC)c2c(=O)cc(-c3ccc(OCc4cn(-c5ccc(F)cc5Cl)nn4)c(OCc4cn(-c5ccc(F)cc5Cl)nn4)c3)oc2c1 here.
Solution: > 100 µg/mL

Problem: Supply recorded MIC for COc1cc(OC)c2c(=O)cc(-c3ccc(OCc4cn(-c5ccc(F)c(Cl)c5)nn4)c(OC)c3)oc2c1 here.
Solution: > 100 µg/mL

Problem: Supply recorded MIC for COc1cc(O)c(C(=O)/C=C/c2ccc(OCc3cn(-c4ccc(F)cc4Cl)nn3)c(OCc3cn(-c4ccc(F)cc4Cl)nn3)c2)c(OC)c1 here.
Solution: > 100 µg/mL

Problem: Supply recorded MIC for COc1cc(O)c(C(=O)/C=C/c2ccc(OCc3cn(-c4ccc(F)cc4F)nn3)c(OCc3cn(-c4ccc(F)cc4F)nn3)c2)c(OC)c1 here.
Solution: 6.25 µg/mL

Problem: Supply recorded MIC for COc1cc(O)c(C(=O)/C=C/c2ccc(OCc3cn(-c4ccccc4Cl)nn3)c(OCc3cn(-c4ccccc4Cl)nn3)c2)c(OC)c1 here.
Solution: > 100 µg/mL

Problem: Supply recorded MIC for COc1cc(O)c(C(=O)/C=C/c2ccc(OC)c(OCc3cn(-c4ccc(F)cc4Cl)nn3)c2)c(OC)c1 here.
Solution: > 100 µg/mL

Problem: Supply recorded MIC for COc1cc(O)c(C(=O)/C=C/c2ccc(OC)c(OCc3cn(-c4ccc(F)c(Cl)c4)nn3)c2)c(OC)c1 here.
Solution: 100 µg/mL

Problem: Supply recorded MIC for COc1cc(O)c(C(=O)/C=C/c2ccc(OCc3cn(-c4ccc(F)cc4Cl)nn3)c(OC)c2)c(OC)c1 here.
Solution: 12.5 µg/mL

Problem: Supply recorded MIC for COc1cc(O)c(C(=O)/C=C/c2ccc(OC)c(OCc3cn(-c4ccc(F)cc4F)nn3)c2)c(OC)c1 here.
Solution: 50 µg/mL

Problem: Supply recorded MIC for COc1cc(O)c(C(=O)/C=C/c2ccc(OCc3cn(-c4ccc(Cl)cc4)nn3)c(OC)c2)c(OC)c1 here.
Solution: > 100 µg/mL

Problem: Supply recorded MIC for COc1cc(OC)c2c(=O)cc(-c3ccc(OCc4cn(-c5ccc(F)c(Cl)c5)nn4)c(OCc4cn(-c5ccc(F)c(Cl)c5)nn4)c3)oc2c1 here.
Solution: 100 µg/mL

Problem: Supply recorded MIC for COc1cc(O)c(C(=O)/C=C/c2ccc(OC)c(OCc3cn(-c4ccccc4Cl)nn3)c2)c(OC)c1 here.
Solution: 50 µg/mL

Problem: Supply recorded MIC for COc1cc(O)c(C(=O)/C=C/c2ccc(OC)c(OCc3cn(-c4ccc(Cl)cc4)nn3)c2)c(OC)c1 here.
Solution: 100 µg/mL

Problem: Supply recorded MIC for COc1cc(O)c(C(=O)/C=C/c2ccc(OCc3cn(-c4ccc(F)c(Cl)c4)nn3)c(OCc3cn(-c4ccc(F)c(Cl)c4)nn3)c2)c(OC)c1 here.
Solution: > 100 µg/mL

Problem: Supply recorded MIC for COc1cc(OC)c2c(=O)cc(-c3ccc(OCc4cn(-c5ccc(F)cc5F)nn4)c(OCc4cn(-c5ccc(F)cc5F)nn4)c3)oc2c1 here.
Solution: > 100 µg/mL

Problem: Supply recorded MIC for COc1cc(OC)c2c(=O)cc(-c3ccc(OCc4cn(-c5ccccc5Cl)nn4)c(OCc4cn(-c5ccccc5Cl)nn4)c3)oc2c1 here.
Solution: > 100 µg/mL
